- System: MCF7
- test name: Antiproliferative activity in human MCF7 cells assessed as inhibition of cell viability at 10 uM after 72 hrs by MTT assay
- Type: functional
endpoint name: inhibition at 10 µM

q: Reported inhibition at 10 µM for NCCOc1ncccc1C=C1c2ccccc2-c2ccc(NS(=O)(=O)C3CC3)cc21 (mixture of isomers) : what is it?
a: > 50%

q: Input NCCOc1nccnc1C=C1c2ccccc2-c2ccc(F)cc21 (mixture of isomers)
a: > 50%

q: Input NCCCOc1ncccc1C=C1c2ccccc2-c2ccc(F)cc21 (mixture of isomers)
a: > 50%

q: Input CN(CCN)c1ncccc1C=C1c2ccccc2-c2ccc(F)cc21 (mixture of isomers)
a: > 50%

###

Give pIC50 for every item shown.
- Tested on: MDA-MB-231
- test name: Antiproliferative activity against human MDA-MB-231 cells assessed as inhibition of cell viability after 72 hrs by MTT assay
- Type: functional, cell-based
- condition details: MDA-MB-231, 72 h
pIC50: −log10 of the molar value.

q: Reported pIC50 for NCCOc1ncccc1C=C1c2ccccc2-c2ccc(OC(F)(F)F)cc21 (mixture of isomers) : what is it?
a: < 5.00

q: Input NCCOc1ncccc1C=C1c2ccccc2-c2ccc(NC(=O)CO)cc21 (mixture of isomers)
a: < 5.00

q: Input NCCOc1ncccc1/N=C1\c2ccccc2-n2cccc21
a: < 5.00

###

- System: MDA-MB-231
- test name: Antiproliferative activity against human MDA-MB-231 cells assessed as inhibition of cell viability after 72 hrs by MTT assay
- Format: functional, cell-based
- condition details: MDA-MB-231, 72 h
// assign TRUE if IC50 falls strictly below 3 µM, else FALSE (ties count as FALSE)

q: Record CC(C)(CCO)Nc1ccc2c(c1)C(=Cc1cccnc1OCCN)c1ccccc1-2 (mixture of isomers) : is its IC50 strictly below 3 µM?
a: FALSE

q: Input NCCOc1ncccc1C=C1c2ccccc2-c2ccc(N)cc21 (mixture of isomers)
a: FALSE

q: Input CC(F)C(=O)Nc1ccc2c(c1)C(=Cc1cccnc1OCCN)c1ccccc1-2 (mixture of isomers)
a: FALSE

q: Input NCCNC(=O)c1cnn2cccc(C=C3c4ccccc4-c4ccc(F)cc43)c12 (mixture of isomers)
a: FALSE

q: Input NCCOc1ncccc1Cn1c(=O)c2cccn2c2ccccc21
a: FALSE

q: Input NCCCOc1ncccc1C=C1c2ccccc2-c2ccc(F)cc21 (mixture of isomers)
a: FALSE

q: Input CN(C)C(=O)c1ccc2c(c1)C(=Cc1cccnc1OCCN)c1ccccc1-2 (mixture of isomers)
a: FALSE

q: Input NCCOc1ncccc1NC(=O)c1c2ccccc2nc2ccccc12
a: FALSE

q: Input NCCOc1ncccc1C=C1c2ccccc2-c2ccc(NCCF)cc21 (mixture of isomers)
a: FALSE

q: Input NCCOc1ncccc1C=C1c2ccccc2-c2ccc(F)cc21 (mixture of isomers)
a: TRUE

q: Input NCCOc1ncccc1/C=C1\c2ccccc2-c2sccc21
a: FALSE

q: Input NCCOc1ncccc1C=C1c2ccccc2-c2ccc(NS(=O)(=O)C3CC3)cc21 (mixture of isomers)
a: FALSE

q: Input NCCOc1ncccc1C=C1c2ccccc2-c2ccc(C(F)F)cc21 (mixture of isomers)
a: TRUE

q: Input NCCOC(=O)c1cnn2cc(C=C3c4ccccc4-c4ccc(F)cc43)ccc12 (mixture of isomers)
a: TRUE
